Target: Cytochrome c (Cyt c) from equine / horse heart (Equus caballus)
Construct: gene CYCS; mature heme-containing protein
Sequence (P00004 2-105): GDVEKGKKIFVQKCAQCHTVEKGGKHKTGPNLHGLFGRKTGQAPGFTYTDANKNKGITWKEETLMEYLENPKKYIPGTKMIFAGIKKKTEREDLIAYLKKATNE
Assay: native ESI-MS, deconvoluted peak ratios
Type: binding
Settings: aqueous solution, 0.5 uM Cyt c, 3-7 uM ligand, room temperature, 1 h; stepwise constant of the 1:1 complex
value kind: Ka,1 (10^4 L mol^-1)

Some entries whose results are on file:
OC[C@H]1O[C@H](O[C@H]2[C@H](O)[C@@H](O)[C@@H](O[C@H]3[C@H](O)[C@@H](O)C(O)O[C@@H]3CO)O[C@@H]2CO)[C@H](O)[C@@H](O)[C@@H]1O (stereo partly drawn) [Mal III, maltotriose]; 3.842 x 10^4 (RSD 2.5%)
OC[C@H]1O[C@H](O[C@H]2[C@H](O)[C@@H](O)[C@@H](O[C@H]3[C@H](O)[C@@H](O)[C@@H](O[C@H]4[C@H](O)[C@@H](O)[C@@H](O[C@H]5[C@H](O)[C@@H](O)[C@@H](O[C@H]6[C@H](O)[C@@H](O)[C@@H](O[C@H]7[C@H](O)[C@@H](O)C(O)O[C@@H]7CO)O[C@@H]6CO)O[C@@H]5CO)O[C@@H]4CO)O[C@@H]3CO)O[C@@H]2CO)[C@H](O)[C@@H](O)[C@@H]1O (stereo partly drawn) [Mal VII, maltoheptaose]; 2.205 x 10^4 (RSD 1.6%)
OC[C@H]1O[C@H](O[C@H]2[C@H](O)[C@@H](O)[C@@H](O[C@H]3[C@H](O)[C@@H](O)[C@@H](O[C@H]4[C@H](O)[C@@H](O)[C@@H](O[C@H]5[C@H](O)[C@@H](O)[C@@H](O[C@H]6[C@H](O)[C@@H](O)C(O)O[C@@H]6CO)O[C@@H]5CO)O[C@@H]4CO)O[C@@H]3CO)O[C@@H]2CO)[C@H](O)[C@@H](O)[C@@H]1O (stereo partly drawn) [Mal VI, maltohexaose]; 2.438 x 10^4 (RSD 2.5%)

stdin: Check the records and state Ka,1 (10^4 L mol^-1) for OC[C@H]1O[C@H](O[C@H]2[C@H](O)[C@@H](O)[C@@H](O[C@H]3[C@H](O)[C@@H](O)[C@@H](O[C@H]4[C@H](O)[C@@H](O)C(O)O[C@@H]4CO)O[C@@H]3CO)O[C@@H]2CO)[C@H](O)[C@@H](O)[C@@H]1O (stereo partly drawn) [Mal IV, maltotetraose]
stdout: 3.279 x 10^4 (RSD 5.6%)

stdin: State, in one line, measured Ka,1 (10^4 L mol^-1) of OC[C@H]1O[C@H](O[C@H]2[C@H](O)[C@@H](O)[C@@H](O[C@H]3[C@H](O)[C@@H](O)[C@@H](O[C@H]4[C@H](O)[C@@H](O)[C@@H](O[C@H]5[C@H](O)[C@@H](O)C(O)O[C@@H]5CO)O[C@@H]4CO)O[C@@H]3CO)O[C@@H]2CO)[C@H](O)[C@@H](O)[C@@H]1O (stereo partly drawn) [Mal V, maltopentaose]
stdout: 2.654 x 10^4 (RSD 0.80%)

stdin: Give Ka,1 (10^4 L mol^-1) for the following compound: OC[C@H]1O[C@H](O[C@H]2[C@H](O)[C@@H](O)C(O)O[C@@H]2CO)[C@H](O)[C@@H](O)[C@@H]1O (stereo partly drawn) [Mal II, maltose]
stdout: 3.227 x 10^4 (RSD 2.9%)
